MEASUREMENT_DESCRIPTION: Fraction unbound in rat plasma
Format: ADME, cell-free
METRIC_NAME: Fu (%)
# unit: % | format: bare number

For orientation, consider the following solved cases.
MOLECULE | METRIC_NAME | UNIT | REPORTED_RESULT
C[C@@H](CN1CCC2(CC1)C(=O)NC[C@H]2c1ccc(F)cc1)NC(=O)c1cc2ccccc2[nH]1 | Fu | % | 13
O=C(C#Cc1ccccc1)NCCN1CCC2(CC1)C(=O)NC[C@H]2c1ccc(F)cc1 | Fu | % | 16
C[C@@H](CN1CCC2(CC1)C(=O)NC[C@H]2c1ccc(F)cc1)NC(=O)c1ccc2ccccc2c1 | Fu | % | 6.1
O=C(NCCN1CCC2(CC1)C(=O)NC[C@H]2c1ccc(F)cc1)c1cc2ccccc2[nH]1 | Fu | % | 19.8
O=C(NCCN1CCC2(CC1)C(O)=NC[C@H]2c1ccc(F)cc1)c1cnc2ccccc2c1 | Fu | % | 31.4

Next up:
**Q:** Query (compound): O=C(NCCN1CCC2(CC1)C(O)=NC[C@H]2c1ccc(F)cc1)c1ccc(F)cc1 ; field requested: Fu
**A:** 24.6

---

MEASUREMENT_TARGET: Phospholipase D2 (Homo sapiens)
METRIC_NAME: pIC50
The quantity pIC50 is defined as the negative base-10 logarithm of the molar concentration.

**Q:** For the compound O=C(NCCN1CCC2(CC1)C(=O)NCN2Cc1cccnc1)c1ccc2ccccc2c1 , what pIC50 is on record?
**A:** 6.44

---

MEASUREMENT_DESCRIPTION: Fraction unbound in rat brain
Type: ADME, tissue-based
// NO strictly below 1% in Fu; YES otherwise

Use the examples below as a reference point.
MOLECULE | GROUP
C[C@@H](CN1CCC2(CC1)C(=O)NC[C@H]2c1ccc(F)cc1)NC(=O)c1cc2ccccc2[nH]1 | NO
C[C@@H](CN1CCC2(CC1)C(=O)NC[C@H]2c1ccc(F)cc1)NC(=O)c1ccc2ccccc2c1 | NO
O=C(NCCN1CCC2(CC1)C(=O)NC[C@H]2c1ccc(F)cc1)c1cc2ccccc2[nH]1 | NO
O=C(NCCN1CCC2(CC1)C(O)=NC[C@H]2c1ccc(F)cc1)c1cnc2ccccc2c1 | YES
O=C(NCCN1CCC2(CC1)C(O)=NC[C@H]2c1ccc(F)cc1)c1ccc(F)cc1 | YES

Please examine the following record next.
**Q:** Identify whether the reported Fu of the following compound is 1% or greater: O=C(C#Cc1ccccc1)NCCN1CCC2(CC1)C(=O)NC[C@H]2c1ccc(F)cc1
**A:** YES

---

MEASUREMENT_TARGET: Phospholipase D1 (Homo sapiens)
Sequence (Q13393 whole entry): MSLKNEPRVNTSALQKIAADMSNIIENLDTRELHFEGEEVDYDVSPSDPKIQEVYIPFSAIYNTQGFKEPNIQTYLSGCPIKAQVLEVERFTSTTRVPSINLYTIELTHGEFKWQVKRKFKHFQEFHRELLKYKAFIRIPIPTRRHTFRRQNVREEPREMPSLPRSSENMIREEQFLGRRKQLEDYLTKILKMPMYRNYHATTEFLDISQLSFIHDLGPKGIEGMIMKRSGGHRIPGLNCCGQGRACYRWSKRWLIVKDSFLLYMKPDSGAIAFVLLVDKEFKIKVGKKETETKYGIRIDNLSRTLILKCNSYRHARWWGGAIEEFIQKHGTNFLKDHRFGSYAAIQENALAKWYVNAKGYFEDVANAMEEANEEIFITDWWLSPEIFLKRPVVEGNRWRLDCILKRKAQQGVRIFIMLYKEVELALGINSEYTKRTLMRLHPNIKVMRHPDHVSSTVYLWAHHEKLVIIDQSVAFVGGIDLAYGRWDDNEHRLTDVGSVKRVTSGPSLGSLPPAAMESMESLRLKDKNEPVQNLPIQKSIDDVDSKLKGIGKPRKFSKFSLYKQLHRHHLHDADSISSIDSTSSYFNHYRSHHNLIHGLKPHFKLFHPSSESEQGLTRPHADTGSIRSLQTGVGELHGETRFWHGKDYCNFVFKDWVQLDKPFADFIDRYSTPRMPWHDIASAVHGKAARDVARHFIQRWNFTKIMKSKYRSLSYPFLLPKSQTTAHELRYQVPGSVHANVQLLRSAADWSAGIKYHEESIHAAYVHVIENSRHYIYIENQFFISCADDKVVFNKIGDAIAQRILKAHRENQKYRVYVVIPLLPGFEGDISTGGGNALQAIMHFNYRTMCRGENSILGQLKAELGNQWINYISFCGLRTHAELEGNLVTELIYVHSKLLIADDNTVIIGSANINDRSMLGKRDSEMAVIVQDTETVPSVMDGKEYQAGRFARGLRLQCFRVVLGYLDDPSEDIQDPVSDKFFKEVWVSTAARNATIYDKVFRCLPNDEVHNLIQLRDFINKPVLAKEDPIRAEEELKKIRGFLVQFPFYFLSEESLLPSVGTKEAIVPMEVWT
METRIC_NAME: IC50

**Q:** Form entry - test system: Phospholipase D1 (Homo sapiens); read-out: IC50; compound: O=C(NCCN1CCC2(CC1)C(=O)NCN2Cc1cccnc1)c1ccc2ccccc2c1
**A:** > 30 µM

---

MEASUREMENT_TARGET: Phospholipase D2 (Homo sapiens, UniProt O14939)
Sequence (O14939 whole entry, the tested form may be a part): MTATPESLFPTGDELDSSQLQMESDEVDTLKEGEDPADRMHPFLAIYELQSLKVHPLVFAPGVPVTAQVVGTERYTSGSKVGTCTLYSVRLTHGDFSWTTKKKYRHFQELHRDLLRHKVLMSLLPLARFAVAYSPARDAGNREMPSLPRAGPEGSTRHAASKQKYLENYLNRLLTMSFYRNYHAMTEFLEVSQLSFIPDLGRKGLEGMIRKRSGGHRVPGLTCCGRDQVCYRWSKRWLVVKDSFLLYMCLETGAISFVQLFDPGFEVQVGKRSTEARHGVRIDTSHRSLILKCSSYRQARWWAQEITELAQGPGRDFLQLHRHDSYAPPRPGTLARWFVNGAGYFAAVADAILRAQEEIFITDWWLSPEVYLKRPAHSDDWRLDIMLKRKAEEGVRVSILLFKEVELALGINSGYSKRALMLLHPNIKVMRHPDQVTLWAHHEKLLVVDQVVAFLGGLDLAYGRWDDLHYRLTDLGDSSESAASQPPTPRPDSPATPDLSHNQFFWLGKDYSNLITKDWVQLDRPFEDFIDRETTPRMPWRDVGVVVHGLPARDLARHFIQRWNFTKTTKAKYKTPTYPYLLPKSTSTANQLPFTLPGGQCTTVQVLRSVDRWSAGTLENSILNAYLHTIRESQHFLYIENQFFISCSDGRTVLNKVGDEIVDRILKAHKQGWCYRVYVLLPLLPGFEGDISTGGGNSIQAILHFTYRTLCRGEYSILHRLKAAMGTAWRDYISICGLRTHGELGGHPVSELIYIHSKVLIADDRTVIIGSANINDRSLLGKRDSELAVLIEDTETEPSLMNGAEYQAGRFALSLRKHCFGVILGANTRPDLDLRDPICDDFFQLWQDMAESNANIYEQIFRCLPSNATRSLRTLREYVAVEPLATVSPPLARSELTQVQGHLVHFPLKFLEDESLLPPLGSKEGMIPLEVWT
MEASUREMENT_DESCRIPTION: Inhibition of GFP-fused PLD2 (unknown origin) expressed in HEK293 cells by cellular assay
Type: cell-based
METRIC_NAME: IC50 (nM)
// return numeric value only (unit: nM, not printed)

MOLECULE | MEASUREMENT_TARGET | UNIT | IC50
C[C@@H](CN1CCC2(CC1)C(=O)NC[C@H]2c1ccc(F)cc1)NC(=O)C#Cc1ccccc1 | Phospholipase D2 (Homo sapiens, UniProt O14939) | nM | 150
O=C(NCCN1CCC2(CC1)C(=O)NC[C@@H]2c1ccc(F)cc1)c1cc2ccccc2[nH]1 | Phospholipase D2 (Homo sapiens, UniProt O14939) | nM | 43
C[C@@H](CN1CCC2(CC1)C(=O)NC[C@H]2c1ccc(F)cc1)NC(=O)c1ccc2ccccc2c1 | Phospholipase D2 (Homo sapiens, UniProt O14939) | nM | 26
O=C(C#Cc1ccccc1)NCCN1CCC2(CC1)C(=O)NC[C@H]2c1ccc(F)cc1 | Phospholipase D2 (Homo sapiens, UniProt O14939) | nM | 70
C[C@@H](CN1CCC2(CC1)C(=O)NC[C@H]2c1ccc(F)cc1)NC(=O)c1ccc(F)cc1 | Phospholipase D2 (Homo sapiens, UniProt O14939) | nM | 210

**Q:** State the recorded IC50 for this entry: O=C(C#Cc1ccccc1)NCCN1CCC2(CC1)C(=O)NC[C@@H]2c1ccc(F)cc1
**A:** 810

**Q:** Give its IC50 value. Item: C[C@@H](CN1CCC2(CC1)C(=O)NC[C@@H]2c1ccc(F)cc1)NC(=O)c1ccc(F)cc1
**A:** 2800

**Q:** What IC50 value was documented for this molecule, C[C@@H](CN1CCC2(CC1)C(=O)NC[C@@H]2c1ccc(F)cc1)NC(=O)C#Cc1ccccc1 ?
**A:** 4000
